Biological target: Sodium-dependent serotonin transporter (Rattus norvegicus)
Experiment: Binding affinity at the serotonin transporter using [125I]RTI-55 in rat caudate membranes.
Assay type: cell membranes
OUTCOME MEASURE: IC50 (nM)
Form entry: value (nM) — number only.

SMILES RECORD: c1ccc(C(OCCN2CCN(CCCc3cccnc3)CC2)c2ccccc2)cc1
UNIT: nM
OBSERVED MEASUREMENT: 2420

SMILES RECORD: c1ccc(C(OCCN2CCN(CCCc3cccs3)CC2)c2ccccc2)cc1
UNIT: nM
OBSERVED MEASUREMENT: 842

SMILES RECORD: Fc1ccc(C(OCCN2CCN(Cc3cc4ccccc4s3)CC2)c2ccc(F)cc2)cc1
UNIT: nM
OBSERVED MEASUREMENT: 495

SMILES RECORD: Fc1ccc(C(OCCN2CCN(CCCc3nc4ccccc4[nH]3)CC2)c2ccc(F)cc2)cc1
UNIT: nM
OBSERVED MEASUREMENT: 28

Now look at this one.
Quickly give me recorded IC50 for `c1ccc(C(OCCN2CCN(Cc3nc4ccccc4[nH]3)CC2)c2ccccc2)cc1` 1880

###

Target: Monoamine transporters; serotonin & dopamine (Rattus norvegicus) (UniProt P31652+P23977)
Sequence (P23977 whole entry, looked up): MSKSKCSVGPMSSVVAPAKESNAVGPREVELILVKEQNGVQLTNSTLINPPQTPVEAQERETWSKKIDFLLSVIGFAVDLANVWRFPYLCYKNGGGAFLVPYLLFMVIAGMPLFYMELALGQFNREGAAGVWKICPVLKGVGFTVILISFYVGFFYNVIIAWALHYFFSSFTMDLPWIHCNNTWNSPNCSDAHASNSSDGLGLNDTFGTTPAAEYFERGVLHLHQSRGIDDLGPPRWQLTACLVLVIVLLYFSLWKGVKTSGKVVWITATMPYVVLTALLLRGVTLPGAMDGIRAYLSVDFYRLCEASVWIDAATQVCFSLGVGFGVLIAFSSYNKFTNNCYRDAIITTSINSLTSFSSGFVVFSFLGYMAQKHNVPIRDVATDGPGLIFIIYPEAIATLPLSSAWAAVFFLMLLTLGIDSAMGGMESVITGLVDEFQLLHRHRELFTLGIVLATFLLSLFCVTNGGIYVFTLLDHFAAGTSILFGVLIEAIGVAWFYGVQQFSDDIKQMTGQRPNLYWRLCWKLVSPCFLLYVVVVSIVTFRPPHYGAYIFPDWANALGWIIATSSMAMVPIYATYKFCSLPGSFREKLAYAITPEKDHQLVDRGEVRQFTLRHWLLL
Sequence (P31652 whole entry, looked up): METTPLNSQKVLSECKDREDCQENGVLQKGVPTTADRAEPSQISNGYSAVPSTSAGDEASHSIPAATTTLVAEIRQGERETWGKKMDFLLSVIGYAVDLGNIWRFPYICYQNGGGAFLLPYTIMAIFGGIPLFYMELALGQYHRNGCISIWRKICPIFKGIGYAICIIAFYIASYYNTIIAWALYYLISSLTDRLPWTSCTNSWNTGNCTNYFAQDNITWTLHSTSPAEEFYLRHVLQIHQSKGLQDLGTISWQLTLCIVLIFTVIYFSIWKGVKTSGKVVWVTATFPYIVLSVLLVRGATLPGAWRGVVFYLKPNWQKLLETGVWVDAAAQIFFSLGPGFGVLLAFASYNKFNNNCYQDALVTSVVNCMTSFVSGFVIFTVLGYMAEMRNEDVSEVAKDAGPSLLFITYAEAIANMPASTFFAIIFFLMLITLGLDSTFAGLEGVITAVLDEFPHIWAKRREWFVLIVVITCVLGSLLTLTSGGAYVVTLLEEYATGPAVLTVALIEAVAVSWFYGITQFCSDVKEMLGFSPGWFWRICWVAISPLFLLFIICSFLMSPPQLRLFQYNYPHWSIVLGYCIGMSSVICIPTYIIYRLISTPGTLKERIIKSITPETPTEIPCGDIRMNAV
Assay: Ratio of reuptake inhibition of 5-HT with respect to DA
Type: functional
Category scheme (Ratio): low range = under 40, mid range = from 40 up to 60, high range = 60 and over

// below: answered compounds
SMILES RECORD: c1ccc(C(OCCN2CCN(CCCc3ccco3)CC2)c2ccccc2)cc1
ASSIGNED CLASS: high range
--
SMILES RECORD: Fc1ccc(C(OCCN2CCN(C/C=C/c3cccnc3)CC2)c2ccc(F)cc2)cc1
ASSIGNED CLASS: mid range
--
SMILES RECORD: c1ccc(C(OCCN2CCN(Cc3ccc4ccccc4n3)CC2)c2ccccc2)cc1
ASSIGNED CLASS: low range

Please examine the following record next.
Dear colleague, I would appreciate it if you could identify the bin for `c1ccc(C(OCCN2CCN(Cc3ccc4ncccc4c3)CC2)c2ccccc2)cc1` and reply at your convenience. low range

###

Biological target: Sodium-dependent dopamine transporter (Rattus norvegicus, UniProt P23977)
Test: Binding affinity at the dopamine transporter using [125I]RTI-55 in rat caudate membranes.
Format: cell membranes
Listed next: entries and their corresponding IC50.
Expressed in nM, but write only the number.

Examples with answers:
SMILES RECORD: C(=C\c1cccnc1)/CN1CCN(CCOC(c2ccccc2)c2ccccc2)CC1
IC50, nM: 44
//
SMILES RECORD: Fc1ccc(C(OCCN2CCN(CCCc3nc4ccccc4[nH]3)CC2)c2ccc(F)cc2)cc1
IC50, nM: 2.5
//
SMILES RECORD: Fc1ccc(C(OCCN2CCN(Cc3ccc4ccccc4n3)CC2)c2ccc(F)cc2)cc1
IC50, nM: 56

State its IC50 for this compound: `c1ccc(C(OCCN2CCN(Cc3cc4ccccc4o3)CC2)c2ccccc2)cc1` 17

State its IC50: `Fc1ccc(C(OCCN2CCN(Cc3cnc4ccccc4c3)CC2)c2ccc(F)cc2)cc1` 16

# return recorded IC50 for entry `c1ccc(C(OCCN2CCN(CCCc3cccs3)CC2)c2ccccc2)cc1` 5.2

Please look at this compound and report its IC50: `C(=C\c1ccco1)/CN1CCN(CCOC(c2ccccc2)c2ccccc2)CC1` 5

Identify IC50 associated with the compound `Fc1ccc(C(OCCN2CCN(Cc3nc4ccccc4[nH]3)CC2)c2ccc(F)cc2)cc1` 15

Retrieve IC50 measured for `c1ccc(C(OCCN2CCN(CCCc3ccco3)CC2)c2ccccc2)cc1` and print it. 6.5

###

# pIC50 per record follows
Molecular target: Sodium-dependent dopamine transporter (Rattus norvegicus)
Assay: Reuptake inhibition at the dopamine transporter labeled with radioligand [3H]dopamine on synaptosomes obtained from rat caudate.
Type: functional, subcellular, Brain
As a rule, pIC50 stands for the negative log10 of the concentration, concentration in M.

SMILES RECORD: c1ccc(C(OCCN2CCN(Cc3cc4ccccc4[nH]3)CC2)c2ccccc2)cc1
pIC50: 8.06
--
SMILES RECORD: Fc1ccc(C(OCCN2CCN(CCCc3cccs3)CC2)c2ccc(F)cc2)cc1
pIC50: 8.21
--
SMILES RECORD: C(=C\c1cccs1)/CN1CCN(CCOC(c2ccccc2)c2ccccc2)CC1
pIC50: 8.00
--
SMILES RECORD: c1ccc(C(OCCN2CCN(CCCc3cccnc3)CC2)c2ccccc2)cc1
pIC50: 7.15

Now for the molecule whose pIC50 we want.
Report pIC50 for `c1ccc(C(OCCN2CCN(Cc3cc4ccccc4o3)CC2)c2ccccc2)cc1` 7.66

###

Target: Sodium-dependent serotonin transporter (Rattus norvegicus, UniProt P31652)
Assay: Binding affinity at the serotonin transporter using [125I]RTI-55 in rat caudate membranes.
Format: cell membranes
pIC50: −log10 of the molar value.
Label Condition met when pIC50 is at or above 6; otherwise label Condition not met.

Below, 8 molecules whose answers are already recorded.
SMILES RECORD: Fc1ccc(C(OCCN2CCN(Cc3cnc4ccccc4c3)CC2)c2ccc(F)cc2)cc1
ASSIGNED CLASS: Condition met
//
SMILES RECORD: Fc1ccc(C(OCCN2CCN(Cc3ccc4ncccc4c3)CC2)c2ccc(F)cc2)cc1
ASSIGNED CLASS: Condition met
//
SMILES RECORD: Fc1ccc(C(OCCN2CCN(Cc3cccc4ccccc34)CC2)c2ccc(F)cc2)cc1
ASSIGNED CLASS: Condition met
//
SMILES RECORD: Fc1ccc(C(OCCN2CCN(Cc3cc4ccccc4[nH]3)CC2)c2ccc(F)cc2)cc1
ASSIGNED CLASS: Condition met
//
SMILES RECORD: c1ccc(C(OCCN2CCN(CCCc3nc4ccccc4[nH]3)CC2)c2ccccc2)cc1
ASSIGNED CLASS: Condition met
//
SMILES RECORD: C(=C\c1cccnc1)/CN1CCN(CCOC(c2ccccc2)c2ccccc2)CC1
ASSIGNED CLASS: Condition not met
//
SMILES RECORD: c1ccc(C(OCCN2CCN(Cc3cc4ccccc4o3)CC2)c2ccccc2)cc1
ASSIGNED CLASS: Condition not met
//
SMILES RECORD: Fc1ccc(C(OCCN2CCN(Cc3cc4ccccc4o3)CC2)c2ccc(F)cc2)cc1
ASSIGNED CLASS: Condition met

I'd appreciate it if you could say whether `Fc1ccc(C(OCCN2CCN(Cc3ccc4ccccc4c3)CC2)c2ccc(F)cc2)cc1` has pIC50 at least equal to 6. Condition met

I'd appreciate it if you could say whether `c1ccc(C(OCCN2CCN(Cc3cccc4ccccc34)CC2)c2ccccc2)cc1` has pIC50 at least equal to 6. Condition met

Threshold query (pIC50 >= 6) on `c1ccc(C(OCCN2CCN(Cc3ccc4ccccc4n3)CC2)c2ccccc2)cc1` Condition not met

Please indicate if the recorded pIC50 for `Fc1ccc(C(OCCN2CCN(Cc3ccc4ccccc4n3)CC2)c2ccc(F)cc2)cc1` meets or exceeds 6. Condition met

###

Molecular target: Monoamine transporters; serotonin & dopamine (Rattus norvegicus) (UniProt P31652+P23977)
Experiment: Ratio of reuptake inhibition of 5-HT with respect to DA
Format: functional
OUTCOME MEASURE: Ratio
Just the number, please, no unit attached.

SMILES RECORD: Fc1ccc(C(OCCN2CCN(Cc3cc4ccccc4[nH]3)CC2)c2ccc(F)cc2)cc1
STUDY TARGET: Monoamine transporters; serotonin & dopamine (Rattus norvegicus) (UniProt P31652+P23977)
Ratio: 39

SMILES RECORD: Fc1ccc(C(OCCN2CCN(Cc3cc4ccccc4o3)CC2)c2ccc(F)cc2)cc1
STUDY TARGET: Monoamine transporters; serotonin & dopamine (Rattus norvegicus) (UniProt P31652+P23977)
Ratio: 41

SMILES RECORD: c1ccc(C(OCCN2CCN(CCCc3nc4ccccc4[nH]3)CC2)c2ccccc2)cc1
STUDY TARGET: Monoamine transporters; serotonin & dopamine (Rattus norvegicus) (UniProt P31652+P23977)
Ratio: 39

SMILES RECORD: Fc1ccc(C(OCCN2CCN(Cc3nc4ccccc4[nH]3)CC2)c2ccc(F)cc2)cc1
STUDY TARGET: Monoamine transporters; serotonin & dopamine (Rattus norvegicus) (UniProt P31652+P23977)
Ratio: 40

Report the value of Ratio obtained on Monoamine transporters; serotonin & dopamine (Rattus norvegicus) (UniProt P31652+P23977) for `c1ccc(C(OCCN2CCN(Cc3nc4ccccc4[nH]3)CC2)c2ccccc2)cc1` . 110

Give Ratio for this entry on Monoamine transporters; serotonin & dopamine (Rattus norvegicus) (UniProt P31652+P23977): `Fc1ccc(C(OCCN2CCN(Cc3ccc4ccccc4c3)CC2)c2ccc(F)cc2)cc1` 20

Report its Ratio with Monoamine transporters; serotonin & dopamine (Rattus norvegicus) (UniProt P31652+P23977) as the test system: `Fc1ccc(C(OCCN2CCN(CCCc3cccnc3)CC2)c2ccc(F)cc2)cc1` 321

Fill in Ratio for `Fc1ccc(C(OCCN2CCN(CCCc3cccs3)CC2)c2ccc(F)cc2)cc1` tested with Monoamine transporters; serotonin & dopamine (Rattus norvegicus) (UniProt P31652+P23977). 55

Origin of measurements: ChEMBL document CHEMBL1129953
